Biological target: full-length beta-Catenin (Uniprot ID P35222) (Homo sapiens)
Construct: 10 nM full-length beta-Catenin (Uniprot ID P35222)
Sequence (P35222 whole entry): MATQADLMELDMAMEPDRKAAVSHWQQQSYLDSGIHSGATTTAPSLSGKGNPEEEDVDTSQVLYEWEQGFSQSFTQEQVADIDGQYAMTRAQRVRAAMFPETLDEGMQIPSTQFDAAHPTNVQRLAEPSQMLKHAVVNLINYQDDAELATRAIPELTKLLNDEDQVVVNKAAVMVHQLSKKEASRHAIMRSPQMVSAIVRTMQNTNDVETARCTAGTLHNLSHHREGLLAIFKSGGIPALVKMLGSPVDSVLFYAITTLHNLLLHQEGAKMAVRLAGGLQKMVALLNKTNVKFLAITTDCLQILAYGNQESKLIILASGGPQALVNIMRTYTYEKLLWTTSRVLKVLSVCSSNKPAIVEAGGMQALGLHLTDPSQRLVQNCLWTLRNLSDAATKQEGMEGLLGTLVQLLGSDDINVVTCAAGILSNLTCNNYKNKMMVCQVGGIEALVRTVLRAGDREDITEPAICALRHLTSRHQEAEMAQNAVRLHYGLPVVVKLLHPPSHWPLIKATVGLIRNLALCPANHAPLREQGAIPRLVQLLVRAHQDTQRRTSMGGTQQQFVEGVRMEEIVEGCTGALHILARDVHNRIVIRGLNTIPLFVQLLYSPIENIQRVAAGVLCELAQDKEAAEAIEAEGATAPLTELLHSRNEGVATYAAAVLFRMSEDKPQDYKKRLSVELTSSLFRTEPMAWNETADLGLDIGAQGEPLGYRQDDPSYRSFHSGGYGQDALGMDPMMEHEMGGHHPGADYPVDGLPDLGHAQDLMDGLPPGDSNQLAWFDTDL
Assay: Fluorescence polarization IC50 (beta-catenin / 5FAM-TCF4 10-53 competition)
Type: binding
Settings: fluorescence polarization; read-out: beta-Catenin FP IC50
Item-by-item account of IC50
Number only, in µM; omit the unit.

Answered cases to consult:
INSERT INTO assay_data (compound, unit, observed_result) VALUES
  ('CCCC[C@H](NC(=O)[C@H](CC(C)C)NC(=O)[C@H](CCC(N)=O)NC(=O)[C@H](Cc1csc2ccccc12)NC(=O)[C@H](Cc1ccccc1C(F)(F)F)NC(=O)[C@]12CCN(C1)C(=O)OCCCC=CCCCC1(CCCC=CC[C@]3(CCCN3C(C)=O)C(=O)N[C@@H](CC(=O)O)C(=O)N[C@@H](CC(C)(C)C)C(=O)N1)C(=O)N[C@@H](CC(=O)O)C(=O)N[C@@H](Cc1cccc(C(=O)O)c1)C(=O)N[C@@H](C)C(=O)N[C@@H](C)C(=O)N[C@@H](Cc1ccccc1)C(=O)N[C@@H](CC(C)C)C(=O)N2)C(N)=O (some centres unmarked)', 'µM', 0.11),
  ('CC(=O)N1CCC[C@]12CC=CCCCC1(CCCC=CCCCOC(=O)N3CC[C@@](C(=O)N[C@@H](Cc4ccccc4C(F)(F)F)C(=O)N[C@@H](Cc4csc5ccccc45)C(=O)N[C@@H](CCC(=O)N(C)C)C(N)=O)(C3)NC(=O)[C@H](Cc3ccccc3)NC(=O)[C@H](Cc3ccccc3)NC(=O)[C@H](C)NC(=O)[C@H](C)NC(=O)[C@H](Cc3cccc(C(=O)O)c3)NC(=O)[C@H](CC(=O)O)NC1=O)NC(=O)[C@H](CC(C)(C)C)NC(=O)[C@H](CC(=O)O)NC2=O (some centres unmarked)', 'µM', 0.021),
  ('CC(=O)NCCCC[C@@H]1NC(=O)[C@H](Cc2ccccc2)NC(=O)[C@H](C)NC(=O)[C@H](C)NC(=O)[C@H](Cc2cccc(C(=O)O)c2)NC(=O)[C@H](CC(=O)O)NC(=O)C2(CCCC=CCCCOC(=O)N3CC[C@@](C(=O)N[C@@H](Cc4ccccc4C(F)(F)F)C(=O)N[C@@H](Cc4csc5ccccc45)C(=O)N[C@@H](CCC(=O)N(C)C)C(N)=O)(C3)NC1=O)CCCC=CC[C@]1(CCCN1C(C)=O)C(=O)N[C@@H](CC(=O)O)C(=O)N[C@@H](CC(C)(C)C)C(=O)N2 (some centres unmarked) [I-2539]', 'µM', 0.011),
  ('CC(=O)N1CCC[C@]12CC=CCCCC1(CCCC=CCCCCCC[C@@](C)(C(=O)N[C@@H](Cc3cccc(F)c3)C(=O)N[C@@H](Cc3c[nH]c4ccccc34)C(=O)N[C@@H](CCC(N)=O)C(N)=O)NC(=O)[C@H](CCC(N)=O)NC(=O)[C@H](Cc3ccsc3)NC(=O)[C@H](C)NC(=O)[C@H](C)NC(=O)[C@H](CCC(=O)O)NC(=O)[C@H](CC(=O)O)NC1=O)NC(=O)[C@H](C)NC(=O)[C@H](CC(=O)O)NC2=O (some centres unmarked)', 'µM', 1.66);

## Input I have this compound here, CC(=O)N1CCC[C@]12CC=CCCCC1(CCCC=CCCCOC(=O)N3CC[C@@](C(=O)N[C@@H](Cc4ccsc4)C(=O)N[C@@H](Cc4csc5ccccc45)C(=O)N[C@H](C(N)=O)C(C)C)(C3)NC(=O)[C@H](CC(C)C)NC(=O)[C@H](Cc3ccccc3)NC(=O)[C@H](C)NC(=O)[C@H](C)NC(=O)[C@H](CN(CC(=O)O)CC(F)(F)F)NC(=O)[C@H](CC(=O)O)NC1=O)NC(=O)[C@H](CC(C)(C)C)NC(=O)[C@H](CC(=O)O)NC2=O (some centres unmarked) [I-1752] , and I need its recorded IC50.
## Output 0.087

====

Item-by-item account of IC50
Molecular target: full-length beta-Catenin (Uniprot ID P35222) (Homo sapiens)
Construct: 10 nM full-length beta-Catenin (Uniprot ID P35222)
Test: Fluorescence polarization IC50 (beta-catenin / 5FAM-TCF4 10-53 competition)
Format: binding
Conditions: read-out: beta-Catenin FP IC50
Number only, in nM; omit the unit.

## Input Please state recorded IC50 (tested on full-length beta-Catenin (Uniprot ID P35222) (Homo sapiens)) of CCN(CC(=O)O)C[C@@H]1NC(=O)[C@H](CC(=O)O)NC(=O)C2(CCCC=CCCCOC(=O)N3CC[C@@](C(=O)N[C@@H](Cc4ccsc4)C(=O)N[C@@H](Cc4csc5ccccc45)C(=O)N[C@@H](CCC(N)=O)C(N)=O)(C3)NC(=O)[C@H](CC(N)=O)NC(=O)[C@H](Cc3ccccc3)NC(=O)[C@H](C)NC(=O)[C@H](C)NC1=O)CCCC=CC[C@]1(CCCN1C(C)=O)C(=O)N[C@@H](CC(=O)O)C(=O)N[C@@H](CC(C)(C)C)C(=O)N2 (stereo partly drawn) [I-965]
## Output 1780

## Input Please state recorded IC50 (tested on full-length beta-Catenin (Uniprot ID P35222) (Homo sapiens)) of CC(=O)N1CCC[C@]12CC=CCCCC1(CCCC=CCCCCOC(=O)N3CC[C@@](C(=O)N[C@@H](Cc4ccsc4)C(=O)N[C@@H](Cc4csc5ccccc45)C(=O)N[C@@H](CC(N)=O)C(=O)N[C@@H](C)C(N)=O)(C3)NC(=O)[C@H](CC(N)=O)NC(=O)[C@H](Cc3ccccc3)NC(=O)[C@H](C)NC(=O)[C@H](C)NC(=O)[C@H](CC(=O)O)NC(=O)[C@H](CC(=O)O)NC1=O)NC(=O)[C@H](CC(C)(C)C)NC(=O)[C@H](CC(=O)O)NC2=O (stereo partly drawn)
## Output 15

## Input Please state recorded IC50 (tested on full-length beta-Catenin (Uniprot ID P35222) (Homo sapiens)) of CC(=O)N1CCC[C@]12CC=CCCCC1(CCCC=CCCCOC(=O)N3CC[C@@](C(=O)N[C@@H](Cc4ccsc4)C(=O)N[C@@H](Cc4csc5ccccc45)C(=O)N[C@@H](CCC(N)=O)C(N)=O)(C3)NC(=O)[C@H](CC(N)=O)NC(=O)[C@H](Cc3ccccc3)NC(=O)[C@H](C)NC(=O)[C@H](C)NC(=O)[C@H](Cc3ccc(O)cc3)NC(=O)[C@H](CC(=O)O)NC1=O)NC(=O)[C@H](CC(C)(C)C)NC(=O)[C@H](CC(=O)O)NC2=O (stereo partly drawn)
## Output 34

## Input Please state recorded IC50 (tested on full-length beta-Catenin (Uniprot ID P35222) (Homo sapiens)) of COCCOCCOCCOCCOCCOCCOCCOCCC(=O)NCCCC[C@@H]1NC(=O)[C@H](C)NC(=O)[C@H](CC(=O)O)NC(=O)[C@H](CC(=O)O)NC(=O)C2(CCCC=CCCCOC(=O)N3CC[C@@](C(=O)N[C@@H](Cc4ccsc4)C(=O)N[C@@H](Cc4csc5ccccc45)C(=O)N[C@@H](CCC(N)=O)C(N)=O)(C3)NC(=O)[C@H](CC(N)=O)NC(=O)[C@H](Cc3ccccc3)NC1=O)CCCC=CC[C@]1(CCCN1C(C)=O)C(=O)N[C@@H](CC(=O)O)C(=O)N[C@@H](CC(C)(C)C)C(=O)N2 (stereo partly drawn)
## Output 22

## Input Please state recorded IC50 (tested on full-length beta-Catenin (Uniprot ID P35222) (Homo sapiens)) of CC(=O)N1CCC[C@]12CC=CCCCC1(CCCC=CCCCOC(=O)N3CC[C@@](C(=O)N[C@@H](Cc4ccccc4Cl)C(=O)N[C@@H](Cc4csc5ccccc45)C(=O)N[C@@H](CO)C(N)=O)(C3)NC(=O)[C@H]([C@@H](C)O)NC(=O)[C@H](Cc3ccccc3)NC(=O)[C@H](C)NC(=O)[C@H](C)NC(=O)[C@H](CC(N)=O)NC(=O)[C@H](CC(=O)O)NC1=O)NC(=O)[C@H](CC(C)(C)C)NC(=O)[C@H](CC(=O)O)NC2=O (stereo partly drawn)
## Output 8

## Input Please state recorded IC50 (tested on full-length beta-Catenin (Uniprot ID P35222) (Homo sapiens)) of CC(=O)N1CCC[C@]12CC=CCCCC1(CCCC=CCCCOC(=O)N3CC[C@@](C(=O)N[C@@H](Cc4ccsc4)C(=O)N[C@@H](Cc4csc5ccccc45)C(=O)N[C@@H](CCC(N)=O)C(N)=O)(C3)NC(=O)[C@H](CCC(N)=O)NC(=O)[C@H](Cc3ccccc3)NC(=O)[C@H](C)NC(=O)[C@H](C)NC(=O)[C@H](CC(=O)O)NC(=O)[C@H](CC(=O)O)NC1=O)NC(=O)[C@H](CC(C)(C)C)NC(=O)[C@H](CC(=O)O)NC2=O (stereo partly drawn) [I-764]
## Output 14

## Input Please state recorded IC50 (tested on full-length beta-Catenin (Uniprot ID P35222) (Homo sapiens)) of CC(=O)N1CCC[C@]12CC=CCCCC1(CCCC=CCCCCOC(=O)N3CC[C@@](C(=O)N[C@@H](Cc4ccsc4)C(=O)N[C@@H](Cc4csc5ccccc45)C(=O)N[C@@H](Cc4c[nH]cn4)C(=O)N[C@@H](C)C(N)=O)(C3)NC(=O)[C@H](CC(N)=O)NC(=O)[C@H](Cc3ccccc3)NC(=O)[C@H](C)NC(=O)[C@H](C)NC(=O)[C@H](CC(=O)O)NC(=O)[C@H](CC(=O)O)NC1=O)NC(=O)[C@H](CC(C)(C)C)NC(=O)[C@H](CC(=O)O)NC2=O (stereo partly drawn) [I-828]
## Output 13

## Input Please state recorded IC50 (tested on full-length beta-Catenin (Uniprot ID P35222) (Homo sapiens)) of CC(=O)N1CCC[C@]12CC=CCCCC1(CCCC=CCCCOC(=O)N3CC[C@@](C(=O)N[C@@H](Cc4ccccc4Cl)C(=O)N[C@@H](Cc4csc5ccccc45)C(=O)N[C@@H](CO)C(N)=O)(C3)NC(=O)[C@H](CC(C)C)NC(=O)[C@H](Cc3ccccc3)NC(=O)[C@H](C)NC(=O)[C@H](C)NC(=O)[C@H](CC(=O)O)NC(=O)[C@H](CC(=O)O)NC1=O)NC(=O)[C@H](CC(C)(C)C)NC(=O)[C@H](CC(=O)O)NC2=O (stereo partly drawn) [I-1064]
## Output 414

## Input Please state recorded IC50 (tested on full-length beta-Catenin (Uniprot ID P35222) (Homo sapiens)) of CC(=O)N1CCC[C@]12CC=CCCCC1(CCCC=CCCCOC(=O)N3CC[C@@](C(=O)N[C@@H](Cc4ccsc4)C(=O)N[C@@H](Cc4csc5ccccc45)C(=O)N[C@@H](Cc4c[nH]cn4)C(N)=O)(C3)NC(=O)[C@H](CCC(N)=O)NC(=O)[C@H](Cc3ccccc3)NC(=O)[C@H](C)NC(=O)[C@H](C)NC(=O)[C@H](CC(=O)O)NC(=O)[C@H](CC(=O)O)NC1=O)NC(=O)[C@H](CC(C)(C)C)NC(=O)[C@H](CC(=O)O)NC2=O (stereo partly drawn) [I-771]
## Output 5
